RUN_DESCRIPTION: protein stability index of a GFP-peptide fusion (GPS, HEK-293T) (PSI 1-6); higher = more stable;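 note: 24-mer peptide tiles fused after GFP, lentivirally expressed, FACS-sorted into six equal bins by GFP/DsRed ratio, decoded by Illumina sequencing, PSI is the read-weighted mean bin number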
SETUP_CONDITIONS: treatment: MLN4924 1 uM, 8 h; c terminus: a fixed tail appended
RECORDED_METRIC: protein stability index

Use the examples below as a reference point.
{"BIOPOLYMER_SEQUENCE": "RRYVARLEMRRRCTWSIFQSIEYA [PPEF2]", "protein stability index": 2.26}
{"BIOPOLYMER_SEQUENCE": "YTSELYPTVIRNVGLGTCSMFSRV [SLC22A15]", "protein stability index": 1.77}
{"BIOPOLYMER_SEQUENCE": "EQRADPNAKAHCGATALHFAAEAG [FEM1B]", "protein stability index": 3.98}
{"BIOPOLYMER_SEQUENCE": "GHSLKNLEHRLNEMERTQAQLRDA [RASAL3]", "protein stability index": 4.58}
{"BIOPOLYMER_SEQUENCE": "GFWETIFGNRIKRVKLISNKGTET [PHTF1]", "protein stability index": 2.74}
{"BIOPOLYMER_SEQUENCE": "IDLSHVTSKCGSLKNIRHRPGGGR [MAP2]", "protein stability index": 3.35}

Query: For CALEEYVRSQYPNQPTRFGKLLLR [NR2F2] , write its protein stability index.
Response: 2.33

Query: Identify the reported protein stability index for the following entry. SFVVARYFPAGNVVNEGFFEENVL [GLIPR2]
Response: 2.33

Query: Give a short answer stating reported protein stability index for ADDAAAVAAKCPRLSECSSPPDYL [TRIB1] .
Response: 5.22

Query: Please report the measured protein stability index for AQDLGLKMTDLLSRRLQLGSEENG [PCDHGC5]
Response: 3.77

Query: Please list protein stability index recorded for the sequence YLRSKLCSLYENDCIFDKFECAWN [PPP2R2C]
Response: 2.61

###

RUN_DESCRIPTION: protein stability index of a GFP-peptide fusion (GPS, HEK-293T) (PSI 1-6); higher = more stable
SETUP_CONDITIONS: treatment: DMSO; c terminus: a fixed tail appended
RECORDED_METRIC: protein stability index
Reply with the value as a number alone.

Query: Given SHRPNQHNTVKLGAFQAQEKELVF [PRIM1] , respond with its protein stability index.
Response: 3.06

Query: Name the recorded protein stability index of the item LVPKTHLMSESEWRNLGVQQSQGW [CKS1B] in your answer.
Response: 2.64

Query: Name the recorded protein stability index of the sequence listed here: RDYKIQASRTWCFYNTEDIKDWED [PTGFR]
Response: 3.28

Query: Supply measured protein stability index of ATEQAATQESTFQELCEGLLEESD [NOP53] in your reply.
Response: 5.61

Query: Consider the sequence MLTLPFDESVVMPESQMCRKFSRE [NEUROD6] . State its measured protein stability index.
Response: 3.65

###

RUN_DESCRIPTION: protein stability index of a GFP-peptide fusion (GPS, HEK-293T) (PSI 1-6); higher = more stable
SETUP_CONDITIONS: treatment: DMSO; c terminus: a fixed tail appended
RECORDED_METRIC: protein stability index
Simply state the number, no unit and no words.

// known answers, use as guide
{"BIOPOLYMER_SEQUENCE": "KWWSDRLALFPLLPKVLQKYWCVT [ZBED1]", "READOUT_VALUE": 2.93}
{"BIOPOLYMER_SEQUENCE": "TCVAVGSPMPYVKWMLGAEDLTPE [PTPRD]", "READOUT_VALUE": 2.97}

// next entry
Query: Complete the entry with protein stability index for MRKGNTMQQFLQKALEILRKDFSE [FAM50A]
Response: 3.09
